System: spiral strips of rabbit aorta
Test details: Reduction of calcium-induced contraction of K+-depolarised rabbit aorta spiral strips
Format: cell-based
Stated conditions: Oryctolagus cuniculus; molar concentration required to reduce the contractile response by 50%; 35 mM potassium, 2 mM calcium ion
Note to self: use 1 (yes) only for IC50 readings below 30 nM; a reading exactly at 30 nM still gets 0 (no).

Consider the following illustrative entries.
| Molecule | Classification |
| --- | --- |
| COC(=O)C1=C(C)NC(C)=C(C(=O)OCSC)C1c1ccccc1C(F)(F)F (stereo not shown) | 1 (yes) |
| COC(=O)C1=C(C)NC(C)=C(C(=O)OCSC)C1c1cccc2nonc12 (stereo not shown) | 0 (no) |
| COC(=O)C1=C(C)NC(C)=C(C(=O)OCSC)C1c1cccc(Cl)c1Cl (stereo not shown) | 1 (yes) |
| COCOC(=O)C1=C(C)NC(C)=C(C(=O)OC(C)C)C1c1cccc([N+](=O)[O-])c1 (stereo not shown) | 1 (yes) |
| COCOC(=O)C1=C(C)NC(C)=C(C(=O)OC)C1c1cccc([N+](=O)[O-])c1 (stereo not shown) | 0 (no) |
| CSCOC(=O)C1=C(C)NC(C)=C(C(=O)OC(C)C)C1c1cccc([N+](=O)[O-])c1 (stereo not shown) | 0 (no) |

Now turn to the next molecule.
Take the molecule COCOC(=O)C1=C(C)NC(C)=C(C(=O)OC)C1c1cccc(Cl)c1Cl (stereo not shown) and say whether its IC50 is less than 30 nM.
1 (yes)

---

System: spiral strips of rabbit aorta
Test details: Reduction of calcium-induced contraction of K+-depolarised rabbit aorta spiral strips
Assay type: cell-based
Stated conditions: Oryctolagus cuniculus; molar concentration required to reduce the contractile response by 50%; 35 mM potassium, 2 mM calcium ion
Some compounds, each annotated with its measured pIC50.
pIC50 here: minus log base 10 of the concentration, concentration in moles per litre.

| Compound | Readout | Observed measurement |
| --- | --- | --- |
| COC(=O)C1=C(C)NC(C)=C(C(=O)OCSC)C1c1cccc([N+](=O)[O-])c1 (stereo not shown) | pIC50 | 8.40 |
| COC(=O)C1=C(C)NC(C)=C(C(=O)OCCN(C)Cc2ccccc2)C1c1cccc([N+](=O)[O-])c1 (stereo not shown) [control, Nicardipine, reference compound] | pIC50 | 7.46 |
| COC(=O)C1=C(C)NC(C)=C(C(=O)OCSC)C1c1ccccc1[N+](=O)[O-] (stereo not shown) | pIC50 | 7.96 |
| CCOCOC(=O)C1=C(C)NC(C)=C(C(=O)OC)C1c1cccc([N+](=O)[O-])c1 (stereo not shown) | pIC50 | 7.54 |
| COC(=O)C1=C(C)NC(C)=C(C(=O)OCSc2ccccc2)C1c1cccc([N+](=O)[O-])c1 (stereo not shown) | pIC50 | 6.85 |

// pIC50 value for CCOC(=O)C1=C(C)NC(C)=C(C(=O)OCSC)C1c1cccc([N+](=O)[O-])c1 (stereo not shown) : 7.70

Lab note: CCSCOC(=O)C1=C(C)NC(C)=C(C(=O)OC)C1c1cccc([N+](=O)[O-])c1 (stereo not shown) gave pIC50 of 7.77
